target.system: T1, human Protein S (human, UniProt P07225 42-676)
T1 sequence: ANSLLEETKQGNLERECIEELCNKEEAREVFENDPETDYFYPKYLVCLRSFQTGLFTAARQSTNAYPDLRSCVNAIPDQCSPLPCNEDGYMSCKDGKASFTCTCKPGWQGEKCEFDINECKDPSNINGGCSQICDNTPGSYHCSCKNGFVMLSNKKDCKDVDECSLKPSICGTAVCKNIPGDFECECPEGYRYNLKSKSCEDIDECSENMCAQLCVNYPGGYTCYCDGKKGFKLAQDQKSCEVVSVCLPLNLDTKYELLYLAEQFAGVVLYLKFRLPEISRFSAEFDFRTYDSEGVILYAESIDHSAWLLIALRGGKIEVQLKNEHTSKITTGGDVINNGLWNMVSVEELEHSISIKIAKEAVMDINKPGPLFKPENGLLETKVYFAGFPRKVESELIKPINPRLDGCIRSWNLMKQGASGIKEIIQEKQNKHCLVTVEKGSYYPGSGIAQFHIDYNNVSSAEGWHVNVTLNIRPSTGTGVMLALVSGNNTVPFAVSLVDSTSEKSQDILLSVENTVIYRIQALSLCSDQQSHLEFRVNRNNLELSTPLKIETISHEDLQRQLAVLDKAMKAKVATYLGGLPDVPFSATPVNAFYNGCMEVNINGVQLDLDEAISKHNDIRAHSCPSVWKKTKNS
assay.overview: cell-based or functional assay
Measured IC50 TFPI, listed per entry for reference.
State just the number; it will be interpreted in nM.

input: What does the record list as IC50 TFPI for Antibody 13 (antibody, V domains shown, Human variable region with rat Fc) VH: QVQLVQSGAEVKKPGSSVKVSCKVSGGTFSSYSISWVRQAPGQGLEWMGGIIPIFGTTNYAQKFQGRVTITADESTSTAYMDLSSLKSEDTAMYYCEGGRVGADFDYWGQGTLVTVSS VL: SSDLTQGPAVSVALGQTVRITCQGDSLRNYYASWYQQKPGQAPVPVIYGKNDRPSGIPDRFSGSISGNTASLTITGAQAEDEAHYYCNSRDSSGNHVVFGGGTKLTVL ?
output: 51.1
